- Test system: MS2 coat protein
- Method description: apparent Kd, MS2 coat protein; higher = weaker binding; RNA-MaP array; FMN 200 µM where present
- Condition: designed as: ON switch for flavin mononucleotide; no ligand
Readout type: apparent Kd (nM)
One number for each entry, in nM.

1. GACAUGAGGAUCACCCAUGUCCCUCCAGAAGGCUGGCGCGCGAAACCUAUCUCGGUUCCGCGCACAGAGGAUAUGGGCGGUUGG = 181
2. UGUUGUAUUACAGGAUAUCUAUUAUUUUUAUUUAGAGAAGGGUAUUCACAUGAGGAUCACCCAUGUAUAUACGAGGAAGUUGUG = 52.6
3. ACUGAAGUCACAGGAUAUCAUAUGCCGGCACAUUGAGAAGGGUGACUGGGCUACAUGAGGAUCACCCAUGUGCCGUCGUAACAA = 29.8
4. UUGCCUCAGAACAUGAGGAUCACCCAUGUGCUGUGGGCAACAUAGGAUAUGAUGGUAUUAUACCGUCAGAAGGAUGAUGGUACU = 5.34
5. GGGUACAUCGGAGGAUAUCAUGUAAAUACAUGAGGAUCACCCAUGUCGAUGGAGACAUCGGAGAUUGAGAAGGCCGAUGUACCA = 154

# batch: return apparent Kd for each of the 7 sequences below
1. UGGUACUAGGGAGGAUAUGGGAAGAUACAUGAGGAUCACCCAUGUUUAAGAAUGCAGAGAGGCAACUAGAAGGCCCUAGUACCU
2. UGUUAAUAAGAGAAGGAGGACUUCAUGAGGAUCACCCAUGUGUUAGUACUUAGGAUAUUUAAUAACAUGAGGAUCACCCAUGUC
3. UUAUGAUAGAUAGGAUAUACAUUGGAUUUAAAAGUAGAAGGAUCAAGUGGGAAAUGAACAUGAGGAUCACCCAUGUAAUAGGUU
4. GGUAAGAUGCAGAAGGUGUUAGCUAGAGCUACGACAUGAGGAUCACCCAUGUACUAGAAACAGUACAAGGAUAUGCAUCUUACA
5. UGCUACGUUUCGUAGCAGCUAGGUGAGGAUAUUCAAUUUUUCACAUGAGGAUCACCCAUGUAUGUGAAGAAGGCGCCUAGAAAU
6. CUAGAUAUGUAAGGAUAUAUAGUGGAAUACACUAUAGAAGGUAUGUGAUAACAUGAGGAUCACCCAUGUCAUUGGAUAUCUAGA
7. GUAGCAAUCGGAGGAUAUUCAUACCGGAAACGGACAUGAGGAUCACCCAUGUCGCGAAAGCGUUGGGAGAAGGCCGAUUGCUAC

[324, 45.2, 109, 17.1, 12.8, 67.5, 220]

###

So I've got a bunch of sequences here, and I need their apparent Kd values.
- Tested on: MS2 coat protein
- Method description: apparent Kd, MS2 coat protein; higher = weaker binding; RNA-MaP array
- Condition: ligand present: flavin mononucleotide; designed as: OFF switch for flavin mononucleotide
Answers are plain numbers, in nM.

# batch: return apparent Kd for each of the 7 sequences below
1. AAACAUGAGGAUCACCCAUGUCGUCCAAUGUAGGCCUAUUGCGAGGAUAUCAUGUCCCAACUACGUGAGAAGGCGCGACUACCA
2. AUAAUCCCUGUUCAGAGACAUGAGGAUCACCCAUGUUUAACGAGAAGGUGAGUGCGACGGCGUCUCAAGGAUAUCGACGUGACC
3. GGGAAACAUGAGGAUCACCCAUGUAAGGAUAUAGAAGAUUCAACAUUCAAGAAUGAGACUAGAAGGUACAGAUC
4. AUCGAUUUUAUAGGAUAUCGCACAUGAGGAUCACCCAUGUGCCCGACAGACUUAAAGCUCAAUCGCGAGAAGGAUAGAACAGGG
5. GUUCCCAUAUCAGGAUAUAUUUCACAUGAGGAUCACCCAUGUUACCCGUGAAGUCGACUCUAUGUAUAGAAGGGAUGAUGGGCC
6. CUGAGCCUGUGUGUACAUGAGGAUCACCCAUGUUCGAUAGGGUAGGAUAUCGCAGUUUCUUGAGCCGAGAAGGACCCUAAUGGA
7. AGAGUGAGAGGAUAUUUUGGCGUAGACAUGAGGAUCACCCAUGUGUCGUGGGCACUGCUGAAAGAAGGCUCAGCUC

12.5
10.4
17.9
8.02
43.7
30.1
25.3
